- test protocol: Ligand charge of maytansinoid conjugates
- Format: physicochemical
experimental endpoint: Ligand charge

For the molecule COc1cc2cc(c1Cl)N(C)C(=O)C[C@H](OC(=O)[C@H](C)N(C)C(=O)CCSSC[C@@H](NC(=O)[C@@H]1CSSC[C@H](NC(=O)[C@@H](Cc3ccccc3)NC(=O)C(F)(F)F)C(=O)N[C@@H](Cc3ccc(O)cc3)C(=O)N[C@H](Cc3c[nH]c4ccccc34)C(=O)N[C@@H](CCCCN)C(=O)N[C@@H]([C@@H](C)O)C(=O)N1)C(N)=O)[C@]1(C)O[C@H]1[C@H](C)[C@@H]1C[C@@](O)(NC(=O)O1)[C@H](OC)/C=C/C=C(\C)C2 [Conjugate 32] , what Ligand charge is on record?
+1

And COC(=O)N[C@H](Cc1ccccc1)C(=O)N[C@H]1CSSC[C@@H](C(=O)N[C@@H](CSSCCC(=O)N(C)[C@@H](C)C(=O)O[C@H]2CC(=O)N(C)c3cc(cc(OC)c3Cl)C/C(C)=C/C=C/[C@@H](OC)[C@@]3(O)C[C@H](OC(=O)N3)[C@@H](C)[C@@H]3O[C@@]23C)C(N)=O)NC(=O)[C@H]([C@@H](C)O)NC(=O)[C@H](CCCCN)NC(=O)[C@@H](Cc2c[nH]c3ccccc23)NC(=O)[C@H](Cc2ccc(O)cc2)NC1=O [Conjugate 35] ?
+1

* * *

- system under test: human SSTR2 (Homo sapiens, UniProt P30874)
- Sequence (P30874 whole entry): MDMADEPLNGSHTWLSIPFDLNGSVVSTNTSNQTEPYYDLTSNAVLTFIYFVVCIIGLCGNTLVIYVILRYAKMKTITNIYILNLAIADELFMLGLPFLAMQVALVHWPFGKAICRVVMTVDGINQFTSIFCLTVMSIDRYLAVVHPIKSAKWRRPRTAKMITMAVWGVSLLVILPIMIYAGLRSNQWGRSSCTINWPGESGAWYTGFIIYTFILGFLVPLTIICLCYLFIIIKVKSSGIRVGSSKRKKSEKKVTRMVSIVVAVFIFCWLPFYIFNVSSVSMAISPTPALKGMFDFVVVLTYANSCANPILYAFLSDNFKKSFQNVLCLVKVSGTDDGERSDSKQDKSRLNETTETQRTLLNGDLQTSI
- test protocol: Radioligand-receptor binding assay, [125I] somatostatin, membranes from SSTR2 expressing CHO-K1 cells
experimental endpoint: Ki (nM)
Form entry: value (nM) — number only.

Give human SSTR2 (Homo sapiens, UniProt P30874) Ki for COc1cc2cc(c1Cl)N(C)C(=O)C[C@H](OC(=O)[C@H](C)N(C)C(=O)CCSSC(C)(C)[C@H](NC(=O)[C@@H]1CSSC[C@H](NC(=O)[C@@H](Cc3ccccc3)NS(C)(=O)=O)C(=O)N[C@@H](Cc3ccc(O)cc3)C(=O)N[C@H](Cc3c[nH]c4ccccc34)C(=O)N[C@@H](CCCCN)C(=O)N[C@@H]([C@@H](C)O)C(=O)N1)C(N)=O)[C@]1(C)O[C@H]1[C@H](C)[C@@H]1C[C@@](O)(NC(=O)O1)[C@H](OC)/C=C/C=C(\C)C2 [Conjugate 10]
0.035

* * *

- test protocol: Ligand charge of maytansinoid conjugates
- Assay type: physicochemical
Kindly supply the reported Ligand charge values for the records listed here.

Consider the compound shown here: CCCC(=O)N[C@H](Cc1ccccc1)C(=O)N[C@H]1CSSC[C@@H](C(=O)N[C@H](C(=O)NCCSSCCC(=O)N(C)[C@@H](C)C(=O)O[C@H]2CC(=O)N(C)c3cc(cc(OC)c3Cl)C/C(C)=C/C=C/[C@@H](OC)[C@@]3(O)C[C@H](OC(=O)N3)[C@@H](C)[C@@H]3O[C@@]23C)[C@@H](C)O)NC(=O)[C@H]([C@@H](C)O)NC(=O)[C@H](CCCCN)NC(=O)[C@@H](Cc2c[nH]c3ccccc23)NC(=O)[C@H](Cc2ccc(O)cc2)NC1=O [Conjugate 19] What is its recorded Ligand charge?
+1

Same for COc1cc2cc(c1Cl)N(C)C(=O)C[C@H](OC(=O)[C@H](C)N(C)C(=O)CCSSC[C@H](NC(=O)[C@@H]1CSSC[C@H](NC(=O)[C@@H](Cc3ccccc3)NC(=O)C(F)(F)F)C(=O)N[C@@H](Cc3ccc(O)cc3)C(=O)N[C@H](Cc3c[nH]c4ccccc34)C(=O)N[C@@H](CCCCN)C(=O)N[C@@H]([C@@H](C)O)C(=O)N1)C(N)=O)[C@]1(C)O[C@H]1[C@H](C)[C@@H]1C[C@@](O)(NC(=O)O1)[C@H](OC)/C=C/C=C(\C)C2 [Conjugate 29]
+1
